- Tested on: SNB-19 CNS
- Method Summary: NCI tumour cell line growth inhibition, 48 h

{"Molecule": "c1cc(N2CCN(c3ccc(C4=NCCCN4)cc3)CC2)ccc1C1=NCCCN1", "TGI": "> 100 µM"}
{"Molecule": "CC1=NN(c2ccccc2)C(=O)/C1=C\\c1ccc([N+](=O)[O-])cc1", "TGI": "> 100 µM"}
{"Molecule": "Cc1cc(NS(=O)(=O)c2ccc(NC(=O)c3cccc4c(Nc5ccc(S(N)(=O)=O)cc5)c5ccccc5nc34)cc2)no1", "TGI": "> 100 µM"}
{"Molecule": "Oc1cccc2c1NCCC2", "TGI": "> 100 µM"}
{"Molecule": "C[CH2][Hg][S]c1ccccc1C(=O)O", "TGI": "12.3 µM"}
{"Molecule": "O=c1[nH]c2nc3ccccc3c(=O)n2/c1=C/c1ccco1", "TGI": "> 100 µM"}
{"Molecule": "CCOC(=O)Cn1nnc2ccc(Nc3nc4ccccc4nc3-c3ccccc3)cc21", "TGI": "> 100 µM"}
{"Molecule": "O=C1C=C(O)C(=Cc2c(O)cc(O)cc2O)C(O)=C1", "TGI": "> 100 µM"}
{"Molecule": "CC(C)(C)OC(=O)NCCCCC(N)NC(=O)c1ccccc1 (configuration not stated)", "TGI": "> 100 µM"}
{"Molecule": "Cc1ccc(NC(=O)C(=O)C(C(=O)/C=C/c2ccccc2)C2OC(=O)c3ccccc32)c(C)c1 (configuration not stated)", "TGI": "> 100 µM"}
{"Molecule": "CCN1C(=O)N(CC)C2C1NN=c1s/c(=C\\c3ccc(F)cc3)c(=O)n12 (configuration not stated)", "TGI": "> 100 µM"}
{"Molecule": "CCOc1ccc(NC(=O)CCc2nnc(SC)o2)cc1", "TGI": "> 100 µM"}
{"Molecule": "N#CCN1C(=O)c2cc([N+](=O)[O-])cc3cc([N+](=O)[O-])cc(c23)C1=O", "TGI": "> 100 µM"}
{"Molecule": "C[C@@H]1Cc2cc(O)ccc2[C@H]2CC[C@]3(C)/C(=C/COCCN(C)C)CC[C@H]3[C@H]12 (tested in a mixture with another compound)", "TGI": "1.34 µM"}
{"Molecule": "O=Nc1c(-c2c(O)[nH]c3ncccc23)[nH]c2ccccc12", "TGI": "> 100 µM"}
{"Molecule": "CCC1C(c2ccccc2O)c2cc3c(cc2OC1N1CCOCC1)OCO3 (configuration not stated)", "TGI": "28.6 µM"}
{"Molecule": "Nc1n[nH]c2ccc([C@@H]3Nc4cc5c(cc4[C@H]4C6CCC(C6)[C@@H]34)C(=O)NC5)cc12 (some centres not stated)", "TGI": "> 100 µM"}
{"Molecule": "C1CSCCSCCCSCCSCCCSCCSCCCSCCSC1", "TGI": "> 100 µM"}
{"Molecule": "C=CCC1(C)CCCN(Cc2ccccc2)C1=O (configuration not stated)", "TGI": "> 10 µM"}
{"Molecule": "CCCc1[nH]c2ccccc2c1-c1c(CCC)[nH]c2ccccc12", "TGI": "29.3 µM"}
{"Molecule": "Cc1cnc2c(c1C)C(=O)c1ccccc1C2=O", "TGI": "> 100 µM"}
{"Molecule": "CSc1ccc(C2=NN(C(C)=O)C(c3ccc(-c4ccc(Cl)cc4)o3)C2)cc1 (configuration not stated)", "TGI": "> 100 µM"}
{"Molecule": "Cc1cc(=O)c2c(O)cc3c(c2o1)CC=C(COC1OC(COC2OC(CO)C(O)C(O)C2O)C(O)C(O)C1O)CO3 (configuration not stated)", "TGI": "> 100 µM"}
{"Molecule": "Oc1cc(-n2cccn2)c(O)cc1-n1cccn1", "TGI": "> 82.3 µM"}
{"Molecule": "O=C1c2c(Br)sc(Br)c2[C@@H](NC(=O)C(F)(F)F)C1Br (some centres not stated)", "TGI": "25.9 µM"}
{"Molecule": "C=CCOc1ccc(C2C(C(=O)OC)C(=O)CC(O)(c3ccccc3)C2C(=O)OC)cc1OC (configuration not stated)", "TGI": "> 100 µM"}
{"Molecule": "O=C1CCCC/C1=C\\c1ccc(Cl)c(Cl)c1", "TGI": "74.3 µM"}
